# Test system: T47D
# Method description: Antiproliferative activity against human T47D cells assessed as cell growth inhibition by burton method
# Assay type: functional, cell-based
Measured property: IC50 (nM)
Numbers only, in nM.

The recorded IC50 for entry "CC(/C=C/C(=O)NO)=C\[C@@H](C)C(=O)c1ccc(N(C)C)cc1" equals 26.4

* * *

# Target under test: Histone deacetylase 1 (Homo sapiens, UniProt Q13547)
# Sequence (Q13547 whole entry): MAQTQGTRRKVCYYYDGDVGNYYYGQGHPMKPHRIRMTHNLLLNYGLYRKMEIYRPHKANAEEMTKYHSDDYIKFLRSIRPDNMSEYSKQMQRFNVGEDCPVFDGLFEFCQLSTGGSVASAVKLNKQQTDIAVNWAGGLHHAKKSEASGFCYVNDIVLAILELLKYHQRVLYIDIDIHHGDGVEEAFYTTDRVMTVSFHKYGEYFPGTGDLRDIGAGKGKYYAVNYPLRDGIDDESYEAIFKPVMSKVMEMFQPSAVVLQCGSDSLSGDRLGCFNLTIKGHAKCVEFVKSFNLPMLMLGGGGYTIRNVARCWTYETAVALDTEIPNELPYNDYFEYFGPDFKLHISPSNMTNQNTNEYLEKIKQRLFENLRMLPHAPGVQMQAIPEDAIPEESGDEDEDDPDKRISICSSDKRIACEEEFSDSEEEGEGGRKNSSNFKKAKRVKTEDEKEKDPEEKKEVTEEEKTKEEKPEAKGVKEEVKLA
# Method description: Inhibition of HDAC1 in human MCF7 cells using TMB as substrate incubated for 2 hrs by ELISA analysis
# Format: cell-based
Measured property: IC50 (nM)
Numbers only, in nM.

The compound listed as "Cc1cc(/C=C/C(=O)c2ccc(NC(=O)c3ccc(CN4C(=O)c5ccccc5C4=O)cc3)cc2)cc(C)c1C" has a reported IC50 of 220

* * *

# Target under test: Histone deacetylase 2 (Homo sapiens)
# Sequence (Q92769 whole entry): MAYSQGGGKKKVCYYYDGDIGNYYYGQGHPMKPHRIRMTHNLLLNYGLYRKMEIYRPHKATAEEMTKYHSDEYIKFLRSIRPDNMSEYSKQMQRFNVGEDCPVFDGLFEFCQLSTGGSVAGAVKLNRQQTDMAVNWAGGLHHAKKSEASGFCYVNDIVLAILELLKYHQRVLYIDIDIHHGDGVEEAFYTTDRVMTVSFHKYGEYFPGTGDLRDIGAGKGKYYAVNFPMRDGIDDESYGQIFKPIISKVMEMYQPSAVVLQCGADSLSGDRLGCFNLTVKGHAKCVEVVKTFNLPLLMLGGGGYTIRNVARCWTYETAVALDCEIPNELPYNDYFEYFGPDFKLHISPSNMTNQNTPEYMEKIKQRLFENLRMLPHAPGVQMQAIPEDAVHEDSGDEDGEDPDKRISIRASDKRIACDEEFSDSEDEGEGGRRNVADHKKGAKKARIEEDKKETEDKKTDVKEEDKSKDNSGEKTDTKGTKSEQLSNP
# Method description: Inhibition of HDAC2 in human MCF7 cells using TMB as substrate incubated for 2 hrs by ELISA analysis
# Type: cell-based
Measured property: IC50 (nM)
Numbers only, in nM.

Looking up "Cc1cc(/C=C/C(=O)c2ccc(NC(=O)c3ccc(CN4C(=O)c5ccccc5C4=O)cc3)cc2)cc(C)c1C" , I found its IC50 recorded as 430

* * *

# Target under test: Histone deacetylase 1 (Homo sapiens, UniProt Q13547)
# Method description: Inhibition of HDAC1 (unknown origin)
Measured property: IC50 (µM)
One number for each entry, in µM.

Kindly note the recorded IC50 for "CCCC(CCC)C(=O)O" , which is 400

* * *

# System: HA22T cell line
# Method description: Antiproliferative activity against human HA22T cell line assessed as cell growth inhibition
# Format: functional, cell-based
Measured property: IC50
Kindly report the value followed by its unit.

Value of IC50 reported for the molecule "CCC(=O)CCCCC[C@@H]1NC(=O)[C@H]2CCCCN2C(=O)[C@H]([C@@H](C)CC)NC(=O)[C@H](Cc2cc3ccccc3n2OC)NC1=O" is 190 nM

* * *

# Target under test: Histone deacetylase 1 (Homo sapiens, UniProt Q13547)
# Method description: Inhibition of recombinant HDAC1 (unknown origin) using AMC-K(Ac)GL as substrate by fluorescence based analysis
Measured property: IC50 (nM)
Answers are plain numbers, in nM.

Here "CC(C)(C)OC(=O)Nc1cccc(C(=O)/C=C/c2ccc(/C=C/C(=O)NO)cc2)c1" was tested on Histone deacetylase 1 (Homo sapiens, UniProt Q13547), and its IC50 came to 2900

* * *

# Tested on: BT-20
# Method description: Antiproliferative activity against human BT-20 cells assessed as cell growth inhibition
# Assay type: functional, cell-based
Measured property: IC50 (mM)
Numbers only, in mM.

IC50 for BT-20 with input CCCC(=O)[O-].[Na+] [SODIUM BUTYRATE] equals 1.4

* * *

# Target under test: Histone deacetylase 3 (Homo sapiens)
# Sequence (O15379 whole entry): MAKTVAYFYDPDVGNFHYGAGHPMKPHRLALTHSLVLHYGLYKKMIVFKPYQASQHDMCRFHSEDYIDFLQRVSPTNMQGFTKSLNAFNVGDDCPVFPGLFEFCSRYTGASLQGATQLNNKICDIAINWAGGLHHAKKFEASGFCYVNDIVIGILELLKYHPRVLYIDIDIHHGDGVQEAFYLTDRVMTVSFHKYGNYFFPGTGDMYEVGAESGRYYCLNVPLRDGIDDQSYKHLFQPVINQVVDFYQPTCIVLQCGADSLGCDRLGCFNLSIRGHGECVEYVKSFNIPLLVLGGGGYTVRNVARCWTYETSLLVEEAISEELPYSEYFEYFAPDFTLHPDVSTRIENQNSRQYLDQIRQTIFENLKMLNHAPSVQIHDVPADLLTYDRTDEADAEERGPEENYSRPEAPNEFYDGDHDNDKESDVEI
# Method description: Inhibition of human recombinant His-tagged HDAC3 expressed in baculovirus expression system incubated for 2 hrs by fluorescence based analysis
Measured property: IC50 (µM)
Answers are plain numbers, in µM.

IC50 measured on CCCC(=O)[O-].[Na+] [SODIUM BUTYRATE] = 9

* * *

# Target under test: Histone deacetylase 4 (Homo sapiens)
# Sequence (P56524 whole entry): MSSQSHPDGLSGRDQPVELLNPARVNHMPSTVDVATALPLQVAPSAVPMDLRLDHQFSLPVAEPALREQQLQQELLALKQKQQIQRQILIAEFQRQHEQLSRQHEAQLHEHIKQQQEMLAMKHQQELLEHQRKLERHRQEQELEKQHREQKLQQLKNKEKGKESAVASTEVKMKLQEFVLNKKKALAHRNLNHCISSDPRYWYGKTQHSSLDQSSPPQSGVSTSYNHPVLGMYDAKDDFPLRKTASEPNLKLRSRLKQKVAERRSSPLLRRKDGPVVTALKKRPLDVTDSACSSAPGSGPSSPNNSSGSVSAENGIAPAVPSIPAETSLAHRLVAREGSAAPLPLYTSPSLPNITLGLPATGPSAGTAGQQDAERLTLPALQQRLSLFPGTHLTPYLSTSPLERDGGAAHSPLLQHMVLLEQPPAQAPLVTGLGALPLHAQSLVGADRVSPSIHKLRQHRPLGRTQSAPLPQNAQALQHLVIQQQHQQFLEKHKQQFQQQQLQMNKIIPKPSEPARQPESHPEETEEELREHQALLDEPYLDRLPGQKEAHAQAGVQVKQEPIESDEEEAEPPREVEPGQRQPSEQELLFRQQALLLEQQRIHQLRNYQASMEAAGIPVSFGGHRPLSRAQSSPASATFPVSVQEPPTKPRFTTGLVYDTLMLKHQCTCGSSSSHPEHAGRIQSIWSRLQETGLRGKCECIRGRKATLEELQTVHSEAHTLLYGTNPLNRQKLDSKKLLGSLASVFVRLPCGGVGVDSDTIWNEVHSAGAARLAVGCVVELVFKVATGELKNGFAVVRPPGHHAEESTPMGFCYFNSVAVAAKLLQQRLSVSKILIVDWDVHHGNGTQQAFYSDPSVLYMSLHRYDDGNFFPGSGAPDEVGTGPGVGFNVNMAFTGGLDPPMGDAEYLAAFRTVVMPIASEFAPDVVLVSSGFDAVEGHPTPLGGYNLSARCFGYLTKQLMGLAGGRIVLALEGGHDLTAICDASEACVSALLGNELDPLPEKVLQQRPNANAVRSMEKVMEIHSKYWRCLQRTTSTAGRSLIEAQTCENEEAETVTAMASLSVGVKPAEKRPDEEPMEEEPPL
# Method description: Inhibition of HDAC4 (unknown origin)
Measured property: IC50 (µM)
Give bare numbers, in µM.

For reference, reported IC50 for CCCC(CCC)C(=O)O [VALPROIC ACID] stands at 1000

* * *

# System: HepG2
# Method description: cells
# Condition info: Homo sapiens, HepG2, 72 h
# Description: Antiproliferative activity against human HepG2 cells assessed as cell growth inhibition measured after 72 hrs by MTT assay
Measured property: IC50
Answers without a unit are incomplete; give the number and then its unit.

Solved entries (count: 3):
{"Smiles data": "O=C(/C=C/c1cccc2ccccc12)c1ccc(NC(=O)c2ccc(CN3C(=O)c4ccccc4C3=O)cc2)cc1", "IC50": "8.07 µM"}
{"Smiles data": "COc1ccc(/C=C/C(=O)c2ccc(NC(=O)c3ccc(CN4C(=O)c5ccccc5C4=O)cc3)cc2)cc1", "IC50": "1.87 µM"}
{"Smiles data": "O=C(/C=C/c1ccccc1-c1ccco1)c1ccc(NC(=O)c2ccc(CN3C(=O)c4ccccc4C3=O)cc2)cc1", "IC50": "9.05 µM"}

# IC50 measured on HepG2 for item "COc1ccc(/C=C/C(=O)c2ccc(NC(=O)c3ccc(CN4C(=O)c5ccccc5C4=O)cc3)cc2)c(OC)c1" = 1.75 µM

* * *

# Target under test: UniProt:Q92769
# Method description: Inhibition of human recombinant full-length His-tagged HDAC2 expressed in baculovirus expression system incubated for 2 hrs by fluorescence based analysis
Measured property: IC50
The answer should read as a number with its unit following.

// IC50 value for CCCC(=O)[O-].[Na+] [SODIUM BUTYRATE] : 12 µM

* * *

# Target under test: Histone deacetylase 4 (Homo sapiens)
# Method description: Inhibition of HDAC4 in human HeLa cells incubated for 1 hr by mass spectrometry method
# Format: cell-based
Consider the following compounds; for each one, report its IC50.
# do not omit the unit; it follows the number

Consider the following illustrative entries.
{"Smiles data": "CC[C@]1(C)NC(=O)[C@H](CCCCCC(=O)[C@@H](C)O)NC(=O)[C@H]2CCCN2C(=O)[C@H](Cc2ccccc2)NC1=O", "IC50": "50 nM"}
{"Smiles data": "C[C@H](O)C(=O)CCCCC[C@@H]1NC(=O)[C@H]2CCCN2C(=O)[C@H](Cc2ccccc2)NC(=O)C(C)(C)NC1=O", "IC50": "330 nM"}
{"Smiles data": "C[C@@H](O)C(=O)CCCCC[C@@H]1NC(=O)[C@H]2CCCN2C(=O)[C@H](Cc2ccccc2)NC(=O)C(C)(C)NC1=O", "IC50": "30 nM"}

Entry "C[C@H](O)C(=O)CCCCC[C@@H]1NC(=O)[C@H]2CCCN2C(=O)[C@H](Cc2ccccc2)NC(=O)C(C2CCCCC2)(C2CCCCC2)NC1=O" ; assay system Histone deacetylase 4 (Homo sapiens); IC50 recorded at 670 nM

* * *

# Target under test: Protein deacetylase HDAC6 (Homo sapiens)
# Sequence (Q9UBN7 whole entry): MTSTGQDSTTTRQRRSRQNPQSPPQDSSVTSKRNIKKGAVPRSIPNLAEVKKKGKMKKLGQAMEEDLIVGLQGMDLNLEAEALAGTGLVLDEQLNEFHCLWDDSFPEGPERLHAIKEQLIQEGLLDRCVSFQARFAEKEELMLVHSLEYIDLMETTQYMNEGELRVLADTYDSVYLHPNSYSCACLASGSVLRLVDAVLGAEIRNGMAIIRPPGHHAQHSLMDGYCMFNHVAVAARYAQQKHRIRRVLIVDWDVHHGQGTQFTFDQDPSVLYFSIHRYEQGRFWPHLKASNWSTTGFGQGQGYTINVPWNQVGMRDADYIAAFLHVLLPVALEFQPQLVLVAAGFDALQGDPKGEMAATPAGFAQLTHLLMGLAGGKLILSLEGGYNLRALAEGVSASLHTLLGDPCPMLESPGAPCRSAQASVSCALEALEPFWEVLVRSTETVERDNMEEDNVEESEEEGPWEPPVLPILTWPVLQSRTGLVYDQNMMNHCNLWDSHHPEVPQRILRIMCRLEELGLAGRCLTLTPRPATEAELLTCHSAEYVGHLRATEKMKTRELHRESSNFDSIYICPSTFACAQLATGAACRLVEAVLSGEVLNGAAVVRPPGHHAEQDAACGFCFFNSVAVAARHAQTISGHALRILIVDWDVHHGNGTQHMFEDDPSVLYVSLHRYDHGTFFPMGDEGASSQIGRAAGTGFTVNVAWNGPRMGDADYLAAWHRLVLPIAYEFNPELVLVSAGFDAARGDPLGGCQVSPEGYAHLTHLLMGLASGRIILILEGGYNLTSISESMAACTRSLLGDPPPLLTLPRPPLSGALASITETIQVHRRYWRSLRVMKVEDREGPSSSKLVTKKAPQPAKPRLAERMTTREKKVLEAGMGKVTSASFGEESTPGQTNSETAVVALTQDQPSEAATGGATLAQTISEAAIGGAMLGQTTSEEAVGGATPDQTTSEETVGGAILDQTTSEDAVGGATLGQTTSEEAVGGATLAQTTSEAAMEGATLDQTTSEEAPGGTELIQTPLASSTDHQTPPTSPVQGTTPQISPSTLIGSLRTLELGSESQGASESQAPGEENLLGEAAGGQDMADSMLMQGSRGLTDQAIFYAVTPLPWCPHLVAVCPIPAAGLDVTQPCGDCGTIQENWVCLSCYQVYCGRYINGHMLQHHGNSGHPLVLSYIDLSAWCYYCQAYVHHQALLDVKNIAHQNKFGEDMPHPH
# Method description: Inhibition of HDAC6 (unknown origin)
Measured property: IC50
Please append the unit to your numeric answer.

The molecule listed as "CCCC(CCC)C(=O)O" has a reported IC50 of 1000 µM

* * *

# Target under test: UniProt:P56524
# Method description: Inhibition of HDAC4 in human HeLa cells incubated for 1 hr by mass spectrometry method
# Format: cell-based
Measured property: pIC50
Answers are plain numbers, as −log10 of the molar value.

Recorded pIC50, per entry:
{"Smiles data": "C[C@@H](O)C(=O)CCCCC[C@@H]1NC(=O)[C@H]2CCCN2C(=O)[C@H](Cc2ccccc2)NC(=O)[C@H](Cc2ccccc2)NC1=O", "pIC50": 6.55}
{"Smiles data": "CC[C@]1(C)NC(=O)[C@H](CCCCCC(=O)[C@@H](C)O)NC(=O)[C@H]2CC(C)(C)CN2C(=O)[C@H](Cc2ccccc2)NC1=O", "pIC50": 7.05}
{"Smiles data": "Cc1c[nH]c([C@@H]2NC(=O)[C@H](CCCCCC(=O)[C@H](C)O)NC(=O)[C@H]3CCCN3C(=O)[C@H](Cc3ccccc3)NC2=O)n1", "pIC50": 3.46}

Could you tell me pIC50 for each of these compounds? They are listed below.
1. C[C@@H](O)C(=O)CCCCC[C@@H]1NC(=O)[C@H]2CCCN2C(=O)[C@H](Cc2ccccc2)NC(=O)[C@H](n2ccc3ccccc32)NC1=O
2. CC[C@@H]1NC(=O)[C@H](CCCCCC(=O)[C@H](C)O)NC(=O)[C@H]2CCCN2C(=O)[C@H](Cc2ccccc2)NC1=O

[7.70, 6.00]

* * *

# Test system: Hep 3B2
# Method description: Antiproliferative activity against human Hep3B cells assessed as cell growth inhibition
# Format: functional, cell-based
Measured property: IC50 (µM)
Give bare numbers, in µM.

Observed IC50, Hep 3B2, "CCC(=O)CCCCC[C@@H]1NC(=O)[C@H]2CCCCN2C(=O)[C@H]([C@@H](C)CC)NC(=O)[C@H](Cc2cc3ccccc3n2OC)NC1=O" : 0.19

* * *

# Target under test: Histone deacetylase 1 (Homo sapiens, UniProt Q13547)
# Method description: Inhibition of human recombinant His-tagged HDAC1 expressed in baculovirus expression system incubated for 2 hrs by fluorescence based analysis
Measured property: pIC50
Numbers only, as −log10 of the molar value.

// field: pIC50; key: CCCC(=O)[O-].[Na+] [SODIUM BUTYRATE] ; value = 4.80

* * *

# System: HepG2
# Method description: Antiproliferative activity against human HepG2 cells assessed as cell growth inhibition
# Assay type: functional, cell-based
Measured property: IC50 (nM)
Numbers only, in nM.

The value of IC50 recorded for "CCC(=O)CCCCC[C@@H]1NC(=O)[C@H]2CCCCN2C(=O)[C@H]([C@@H](C)CC)NC(=O)[C@H](Cc2cc3ccccc3n2OC)NC1=O" when tested on HepG2 reads 190
